Examples of molecules with documented percentage of reduction of the infestation (percentage of mortality), Tetran U. follow.
Tested on: Tetranychus urticae
MEASUREMENT PROTOCOL: Biological activity on Tetranychus urticae (Acari) adults
Format: in vivo
SETUP CONDITIONS: 0.01 permill.; 24 hours after treatment
Number only, in %; omit the unit.

Known percentage of reduction of the infestation (percentage of mortality), Tetran U. results, listed for orientation:
Enquiry: Tell me the measured percentage of reduction of the infestation (percentage of mortality), Tetran U. of `CCOP(=S)(OCC)Oc1cc(Cl)nn1Cc1ccccc1` , please.
Return: 100

Enquiry: Tell me the measured percentage of reduction of the infestation (percentage of mortality), Tetran U. of `CCn1nc(Cl)cc1OP(=S)(OC)OC` , please.
Return: 100

Enquiry: Tell me the measured percentage of reduction of the infestation (percentage of mortality), Tetran U. of CCOP(=S)(OC)Oc1cc(Cl)nn1CC (stereo not drawn) , please.
Return: 100

Enquiry: Tell me the measured percentage of reduction of the infestation (percentage of mortality), Tetran U. of CCOP(=S)(OCC)Oc1cc(C)[nH]n1 [Pyrazothion, reference compound] , please.
Return: 90

Enquiry: Tell me the measured percentage of reduction of the infestation (percentage of mortality), Tetran U. of `CCOP(=S)(OCC)Oc1cc(C=C(Cl)Cl)nn1C` , please.
Return: 100

Continuing:
Enquiry: Tell me the measured percentage of reduction of the infestation (percentage of mortality), Tetran U. of `COP(=S)(OC)Oc1cc(Cl)nn1C(C)C` , please.
Return: 80

Enquiry: Tell me the measured percentage of reduction of the infestation (percentage of mortality), Tetran U. of `CCOP(=S)(OCC)Oc1cc(Cl)n(-c2ccc([N+](=O)[O-])cc2)n1` , please.
Return: 96

Enquiry: Tell me the measured percentage of reduction of the infestation (percentage of mortality), Tetran U. of `CCOP(=S)(OCC)Oc1cc(Cl)nn1CCC#N` , please.
Return: 100

Enquiry: Tell me the measured percentage of reduction of the infestation (percentage of mortality), Tetran U. of `CCOP(=S)(OCC)Oc1cc(Cl)nn1C(C)C` , please.
Return: 100

Enquiry: Tell me the measured percentage of reduction of the infestation (percentage of mortality), Tetran U. of CCOP(=S)(OC)Oc1cc(Cl)nn1-c1ccccc1 (stereo not drawn) , please.
Return: 0

Enquiry: Tell me the measured percentage of reduction of the infestation (percentage of mortality), Tetran U. of CCOP(=S)(NC(C)C)Oc1cc(Cl)nn1C (stereo not drawn) , please.
Return: 63

====

Examples of molecules with documented percentage of reduction of the infestation (percentage death rate of larvae), Pieris B follow.
Test system: Pieris brassicae
MEASUREMENT PROTOCOL: Biological activity on Pieris brassicae (Lepitoptera), 5-day old larvae
Type: in vivo
SETUP CONDITIONS: 0.1 permill.; 48 hours after treatment
Number only, in %; omit the unit.

Known percentage of reduction of the infestation (percentage death rate of larvae), Pieris B results, listed for orientation:
Enquiry: Tell me the measured percentage of reduction of the infestation (percentage death rate of larvae), Pieris B of `CCOP(=S)(OCC)Oc1cc(Cl)nn1CC` , please.
Return: 100

Enquiry: Tell me the measured percentage of reduction of the infestation (percentage death rate of larvae), Pieris B of CCOP(=S)(OC)Oc1cc(Cl)nn1C (stereo not drawn) , please.
Return: 100

--- query ---
Enquiry: Tell me the measured percentage of reduction of the infestation (percentage death rate of larvae), Pieris B of `CCOP(=S)(OCC)Oc1cc(Cl)nn1Cc1ccccc1` , please.
Return: 100

====

Examples of compounds with documented log10(LD50) follow.
MEASUREMENT PROTOCOL: Toxicity by os on rats
SETUP CONDITIONS: rat, in vivo, po
Hello, just confirming the data are log10 of LD50 with units of mg/kg.

Enquiry: Tell me the measured log10(LD50) of CCOP(=S)(OC)Oc1cc(Cl)nn1-c1ccccc1 (centres unmarked) [Compound 37] , please.
Return: 2.51

Enquiry: Tell me the measured log10(LD50) of CCOP(=S)(OC)Oc1cc(Cl)nn1C (centres unmarked) [Compound 23] , please.
Return: 2.69

Enquiry: Tell me the measured log10(LD50) of COP(=S)(OC)Oc1cc(Cl)nn1C(C)C [Compound 4] , please.
Return: 3.04

Enquiry: Tell me the measured log10(LD50) of COP(=S)(OC)Oc1cc(Cl)nn1C [Compound 14] , please.
Return: 2.75

Enquiry: Tell me the measured log10(LD50) of CCOP(=S)(OCC)Oc1cc(Cl)nn1-c1ccccc1 [Compound 2] , please.
Return: 1.52

Enquiry: Tell me the measured log10(LD50) of CCOP(=S)(OCC)Oc1cc(C=C(Cl)Cl)nn1C [Compound 6] , please.
Return: 2.24

Enquiry: Tell me the measured log10(LD50) of COP(=S)(OC)Oc1cc(Cl)nn1-c1ccccc1 [Compound 1] , please.
Return: 2.60

Enquiry: Tell me the measured log10(LD50) of CCOP(=S)(OCC)Oc1cc(Cl)nn1C(C)C [Compound 5] , please.
Return: 1.34

Enquiry: Tell me the measured log10(LD50) of CCOP(=S)(OCC)Oc1cc(C)[nH]n1 [Pyrazothion, reference compound] , please.
Return: 1.56

Enquiry: Tell me the measured log10(LD50) of CCOP(=S)(OCC)Oc1cc(Cl)n[nH]1 [Compound 11] , please.
Return: 1.85

--- query ---
Enquiry: Tell me the measured log10(LD50) of CCOP(=S)(OCC)Oc1cc(Cl)nn1C [Compound 13] , please.
Return: 1.40

====

Test system: Leptinatarsa decomlineata
MEASUREMENT PROTOCOL: Biological activity on Leptinatarsa decomlineata (Coledptera), 4-day old larvae
Format: in vivo
SETUP CONDITIONS: 0.1 permill.; 48 hours after treatment
Examples of molecules with documented percentage of reduction of the infestation (percentage death rate), Leptinot D. follow.
Number only, in %; omit the unit.

Known percentage of reduction of the infestation (percentage death rate), Leptinot D. results, listed for orientation:
Enquiry: Tell me the measured percentage of reduction of the infestation (percentage death rate), Leptinot D. of CCOP(=S)(NC(C)C)Oc1cc(Cl)nn1C (stereo not shown) [Compound 49] , please.
Return: 100

Enquiry: Tell me the measured percentage of reduction of the infestation (percentage death rate), Leptinot D. of CCOP(=S)(OC)Oc1cc(Cl)n(-c2ccc([N+](=O)[O-])cc2)n1 (stereo not shown) [Compound 51] , please.
Return: 85

Enquiry: Tell me the measured percentage of reduction of the infestation (percentage death rate), Leptinot D. of CCOP(=S)(OCC)Oc1cc(Cl)nn1C [Compound 13] , please.
Return: 100

Enquiry: Tell me the measured percentage of reduction of the infestation (percentage death rate), Leptinot D. of CCOP(=S)(OCC)Oc1cc(Cl)nn1-c1ccccc1 [Compound 2] , please.
Return: 97

Continuing:
Enquiry: Tell me the measured percentage of reduction of the infestation (percentage death rate), Leptinot D. of CCOP(=S)(OCC)Oc1cc(C)[nH]n1 [Pyrazothion, reference compound] , please.
Return: 0

Enquiry: Tell me the measured percentage of reduction of the infestation (percentage death rate), Leptinot D. of CCOP(=S)(OCC)Oc1cc(C=C(Cl)Cl)nn1C [Compound 6] , please.
Return: 100

Enquiry: Tell me the measured percentage of reduction of the infestation (percentage death rate), Leptinot D. of CCOP(=S)(OC)Oc1cc(Cl)nn1CC (stereo not shown) [Compound 24] , please.
Return: 100

Enquiry: Tell me the measured percentage of reduction of the infestation (percentage death rate), Leptinot D. of CCOP(=S)(OCC)Oc1cc(Cl)nn1C(C)C [Compound 5] , please.
Return: 100

Enquiry: Tell me the measured percentage of reduction of the infestation (percentage death rate), Leptinot D. of CCOP(=S)(OCC)Oc1cc(C=C(Cl)Cl)nn1CCC#N [Compound 9] , please.
Return: 100

Enquiry: Tell me the measured percentage of reduction of the infestation (percentage death rate), Leptinot D. of COP(=S)(OC)Oc1cc(Cl)nn1C [Compound 14] , please.
Return: 37

====

System: Macrosiphum euphorbiae
MEASUREMENT PROTOCOL: Biological activity on Macrosiphum euphorbiae (aphides)
Assay type: in vivo
Set-up: tested at 0.01 permill
SETUP CONDITIONS: 0.01 permill.; 24 hours after treatment
REPORTED METRIC: percentage of reduction of the infestation (percentage death rate), Macrosiph. E. (%)
Number only, in %; omit the unit.

Known percentage of reduction of the infestation (percentage death rate), Macrosiph. E. results, listed for orientation:
Enquiry: Tell me the measured percentage of reduction of the infestation (percentage death rate), Macrosiph. E. of `CCOP(=S)(OCC)Oc1cc(Cl)n(-c2ccc([N+](=O)[O-])cc2)n1` , please.
Return: 54

Enquiry: Tell me the measured percentage of reduction of the infestation (percentage death rate), Macrosiph. E. of `CCOP(=S)(OCC)Oc1cc(Cl)nn1C` , please.
Return: 99

Continuing:
Enquiry: Tell me the measured percentage of reduction of the infestation (percentage death rate), Macrosiph. E. of CCOP(=S)(OC)Oc1cc(Cl)nn1-c1ccccc1 (centres unmarked) , please.
Return: 48

Enquiry: Tell me the measured percentage of reduction of the infestation (percentage death rate), Macrosiph. E. of `COP(=S)(OC)Oc1cc(Cl)nn1C(C)C` , please.
Return: 94

Enquiry: Tell me the measured percentage of reduction of the infestation (percentage death rate), Macrosiph. E. of `CCOP(=S)(OCC)Oc1cc(Cl)nn1CCC#N` , please.
Return: 100

Enquiry: Tell me the measured percentage of reduction of the infestation (percentage death rate), Macrosiph. E. of CCOP(=S)(OC)Oc1cc(Cl)n(-c2ccc([N+](=O)[O-])cc2)n1 (centres unmarked) , please.
Return: 51

Enquiry: Tell me the measured percentage of reduction of the infestation (percentage death rate), Macrosiph. E. of CCOP(=S)(OC)Oc1cc(Cl)nn1CC (centres unmarked) , please.
Return: 96

Enquiry: Tell me the measured percentage of reduction of the infestation (percentage death rate), Macrosiph. E. of `CCOP(=S)(OCC)Oc1cc(Cl)nn1C(C)C` , please.
Return: 100

Enquiry: Tell me the measured percentage of reduction of the infestation (percentage death rate), Macrosiph. E. of `COP(=S)(OC)Oc1cc(Cl)nn1-c1ccccc1` , please.
Return: 90

Enquiry: Tell me the measured percentage of reduction of the infestation (percentage death rate), Macrosiph. E. of `CCOP(=S)(OCC)Oc1cc(Cl)nn1CC` , please.
Return: 98
